B1: library; a variant is named by its letters at N, in order (parent)
chain: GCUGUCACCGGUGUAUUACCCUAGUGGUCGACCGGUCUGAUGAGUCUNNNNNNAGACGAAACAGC

- Variants of: B1
- PROCEDURE TEXT: FACS-Seq fitted mean relative fluorescence mCherry/BFP with ligand (log10 relative fluorescence); ligand: hypoxanthine (xanthine aptamer); ligand concentration (+) FACS-Seq: 5 mM; higher = higher reporter protein expression
- RUN PARAMETERS: HEK293T, ligand present: yes
FACS-Seq fitted mean (log10) overview

GCUGUCACCGGUGUAUUACCCUAGUGGUCGACCGGUCUGAUGAGUCUAUAUUCAGACGAAACAGC [AUAUUC] = 0.166
GCUGUCACCGGUGUAUUACCCUAGUGGUCGACCGGUCUGAUGAGUCUUAAUAGAGACGAAACAGC [UAAUAG] = 0.666
GCUGUCACCGGUGUAUUACCCUAGUGGUCGACCGGUCUGAUGAGUCUAUCUUGAGACGAAACAGC [AUCUUG] = 0.48
GCUGUCACCGGUGUAUUACCCUAGUGGUCGACCGGUCUGAUGAGUCUGCUGAAAGACGAAACAGC [GCUGAA] = 0.43
GCUGUCACCGGUGUAUUACCCUAGUGGUCGACCGGUCUGAUGAGUCUCGAAGAAGACGAAACAGC [CGAAGA] = 0.65
GCUGUCACCGGUGUAUUACCCUAGUGGUCGACCGGUCUGAUGAGUCUACCAAAAGACGAAACAGC [ACCAAA] = 0.487
GCUGUCACCGGUGUAUUACCCUAGUGGUCGACCGGUCUGAUGAGUCUGCGGAUAGACGAAACAGC [GCGGAU] = 0.547
GCUGUCACCGGUGUAUUACCCUAGUGGUCGACCGGUCUGAUGAGUCUCGGGCUAGACGAAACAGC [CGGGCU] = 0.578

// moving on: another record for FACS-Seq fitted mean (log10)
-- ask Return FACS-Seq fitted mean (log10) (reported value) for this variant: GCUGUCACCGGUGUAUUACCCUAGUGGUCGACCGGUCUGAUGAGUCUAGGAGAAGACGAAACAGC [AGGAGA]
-- reply 0.621
